biological target: human TRPA1 (hTRPA1) (Homo sapiens); construct: expressed in transfected cells; test: Inhibition of human TRPA1, whole-cell patch clamp; format: cell-based; settings: antagonist effect, whole cell patch configuration; read-out: hTRPA1
Sequence (O75762 whole entry): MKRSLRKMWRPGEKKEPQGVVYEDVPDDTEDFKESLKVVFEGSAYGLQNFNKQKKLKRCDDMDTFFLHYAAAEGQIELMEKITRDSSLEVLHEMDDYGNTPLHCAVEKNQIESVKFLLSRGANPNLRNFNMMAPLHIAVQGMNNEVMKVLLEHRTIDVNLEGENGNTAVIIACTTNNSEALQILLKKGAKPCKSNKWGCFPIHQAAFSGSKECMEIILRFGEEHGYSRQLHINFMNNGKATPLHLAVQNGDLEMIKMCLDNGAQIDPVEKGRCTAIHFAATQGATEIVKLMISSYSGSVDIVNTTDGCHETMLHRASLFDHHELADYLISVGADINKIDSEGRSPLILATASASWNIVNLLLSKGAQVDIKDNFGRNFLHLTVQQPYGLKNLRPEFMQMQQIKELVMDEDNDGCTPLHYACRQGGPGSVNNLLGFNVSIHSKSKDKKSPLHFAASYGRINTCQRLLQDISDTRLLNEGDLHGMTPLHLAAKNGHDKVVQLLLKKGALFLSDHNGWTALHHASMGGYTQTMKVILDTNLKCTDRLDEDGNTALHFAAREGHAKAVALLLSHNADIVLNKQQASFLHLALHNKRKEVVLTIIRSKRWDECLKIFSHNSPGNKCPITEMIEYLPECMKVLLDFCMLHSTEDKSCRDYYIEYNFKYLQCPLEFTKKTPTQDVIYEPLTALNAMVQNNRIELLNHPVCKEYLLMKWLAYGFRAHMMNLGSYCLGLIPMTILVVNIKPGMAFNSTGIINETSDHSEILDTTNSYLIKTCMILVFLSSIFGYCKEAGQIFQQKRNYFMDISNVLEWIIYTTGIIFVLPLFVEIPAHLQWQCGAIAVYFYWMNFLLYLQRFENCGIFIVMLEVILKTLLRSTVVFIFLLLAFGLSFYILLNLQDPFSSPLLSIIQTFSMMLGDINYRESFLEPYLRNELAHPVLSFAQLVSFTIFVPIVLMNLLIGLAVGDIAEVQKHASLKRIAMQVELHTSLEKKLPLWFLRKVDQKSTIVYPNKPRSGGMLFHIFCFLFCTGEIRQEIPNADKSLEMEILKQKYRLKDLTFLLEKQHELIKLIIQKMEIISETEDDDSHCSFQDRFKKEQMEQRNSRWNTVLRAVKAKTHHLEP
Provide the reported IC50 of each item.
Answers are plain numbers, in nM.

// known answers, use as guide
{"MOLECULE": "Cn1c(=O)c2c(ncn2CC(=O)Nc2ccnc(-c3cnc(N4CCC[C@H]4C(F)(F)F)nc3)n2)n(C)c1=O", "IC50 / nM": 255}
{"MOLECULE": "C[C@@H](C(=O)Nc1ccnc(-c2cnc(N3CC4CC4C3)nc2)n1)n1cnc2c1c(=O)n(C)c(=O)n2C (some centres unmarked)", "IC50 / nM": 26.7}
{"MOLECULE": "C[C@@H](C(=O)Nc1ccnc(-c2cnc(N3CC(F)(F)C3)nc2)n1)n1cnc2c1c(=O)n(C)c(=O)n2C", "IC50 / nM": 462}
{"MOLECULE": "C[C@@H](C(=O)Nc1ccnc(-c2cnc(N3CCCC3(C)C)nc2)n1)n1cnc2c1c(=O)n(C)c(=O)n2C", "IC50 / nM": 5.15}
{"MOLECULE": "Cn1c(=O)c2c(ncn2CC(=O)Nc2ccnc(-c3cnc(N4CCCC4(C)C)nc3)n2)n(C)c1=O", "IC50 / nM": 10.4}

Fill in IC50 for each of the 2 molecules listed.
1. C[C@H]1CCCN1c1ncc(-c2nccc(NC(=O)[C@H](C)n3cnc4c3c(=O)n(C)c(=O)n4C)n2)cn1
2. C[C@@H](C(=O)Nc1ccnc(-c2cnc(N3CCC[C@H]3C(F)(F)F)nc2)n1)n1cnc2c1c(=O)n(C)c(=O)n2C(F)F

a:
51
29.7

Fill in IC50 for each of the 4 molecules listed.
1. C[C@@H](C(=O)Nc1ccnc(-c2cnc(N3CC(C(F)(F)F)C3)nc2)n1)n1cnc2c1c(=O)n(C)c(=O)n2C
2. C[C@H]1CCCN1c1ncc(-c2nccc(NC(=O)Cn3cnc4c3c(=O)n(C)c(=O)n4C)n2)cn1
3. C[C@H](C(=O)Nc1ccnc(-c2cnc(N3CCC[C@@H]3C(F)(F)F)nc2)n1)n1cnc2c1c(=O)n(C)c(=O)n2C
4. C[C@H](C(=O)Nc1ccnc(-c2cnc(N3CCC[C@H]3C(F)(F)F)nc2)n1)n1cnc2c1c(=O)n(C)c(=O)n2C

a:
62.9
96.1
65.9
2290

Fill in IC50 for each of the 3 molecules listed.
1. C[C@@H](C(=O)Nc1ccnc(-c2cnc(N3CCC(F)(F)CC3)nc2)n1)n1cnc2c1c(=O)n(C)c(=O)n2C
2. CC(C(=O)Nc1ccnc(-c2cnc(N3CCCC[C@@H]3C)nc2)n1)n1cnc2c1c(=O)n(C)c(=O)n2C (some centres unmarked)
3. C[C@@H](C(=O)Nc1ccnc(-c2cnc(N3CCC[C@H]3C(F)(F)F)nc2)n1)n1cnc2[nH]c(=O)n(C)c(=O)c21

a:
94.8
60.7
663

* * *

test: Oral PK and bioavailability of micronized Compound 2 suspension; format: in vivo, Sprague-Dawley rats; settings: Sprague-Dawley, rat, plasma; rats, 10 mg/kg oral, micronized suspension in 0.5% methyl cellulose
READOUT_TYPE: bioavailability (%)
Answers are plain numbers, in %.

q: Can you share its bioavailability? I mean this compound: C[C@@H](C(=O)Nc1ccnc(-c2cnc(N3CCC[C@H]3C(F)(F)F)nc2)n1)n1cnc2c1c(=O)n(C)c(=O)n2C
a: 85
